Source: paper PMC9352680

# measured on: T1, PUF4 RNA-binding domain (Saccharomyces cerevisiae, UniProt P25339 537-888)
# T1 sequence: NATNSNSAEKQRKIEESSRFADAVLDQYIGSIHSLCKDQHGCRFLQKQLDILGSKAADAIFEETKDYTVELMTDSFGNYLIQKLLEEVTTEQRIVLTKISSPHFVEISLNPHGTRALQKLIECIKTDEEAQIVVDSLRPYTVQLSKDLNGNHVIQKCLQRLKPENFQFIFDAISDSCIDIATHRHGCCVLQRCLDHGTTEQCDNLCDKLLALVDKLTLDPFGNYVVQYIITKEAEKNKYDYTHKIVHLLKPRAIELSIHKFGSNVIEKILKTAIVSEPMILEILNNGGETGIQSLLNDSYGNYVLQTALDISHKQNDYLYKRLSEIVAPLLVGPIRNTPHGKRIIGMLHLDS
# method summary: Mg; RNA-MaP; 20 mM Na-HEPES pH 7.4, 30 mM KOAc, 0.75 mM MgCl2, 0.1% Tween-20, 5% glycerol, 0.1 mg/mL BSA, 2 mM DTT; 25 C; 0.0125-409.6 nM protein
# condition: tags: N-His6-TEV cleaved; C-SNAP kept, Cy3B-labelled; label: tethered on chip by stalled RNA polymerase
metric: Kd (nM)

{"binder": "Ie_S4_P3E.2_K3.1_C3.2_[+-1CTCTC]_H3.1_A3.1_F3.1_T3.2 (ssRNA) RNA: UUUGACAACUGAUCGUUCUUUCUCUCUCUCUGUAUAUAUAUUCUUUCUCGAUCAGUUGUCUUU", "sign qualifier": "=", "number": 0.676}
{"binder": "UCUCUUCACUGUAUAUAUAUCUCUU (ssRNA) [Id_i_S1_P3E.5_K3.1_C3.3_[T-3C]_[C-2A]_[T-1C]_H3.1_A3.1_F3.1_T3.2]", "sign qualifier": "=", "number": 5.56}
{"binder": "UCUCUUUUUGUAUUAUUAUGUCUCUU (ssRNA) [Id_ii_S1_P5E.2_K5.1_C5.2_[C-2T]_H5.1_A5.1_F5.1_T5.2_[A12G]]", "sign qualifier": "=", "number": 7.22}
{"binder": "UCUCUUAAUAUAUAUACCUCUCUU (ssRNA) [Id_ii_S1_P3E.3_K3.2_C3.2_[C-2A]_[T-1A]_H3.2_A3.1_F3.1_T3.2_[T9C]_[A10C]]", "sign qualifier": "=", "number": 2250}
{"binder": "UCUCUUUGUCUAUUUCUCUU (ssRNA) [Ib_S1_P3E.1_K3.1_C3.1_H3.1_[A4C]_A3.1_F3.1_[A8T]_T3.1]", "sign qualifier": "=", "number": 823}
{"binder": "Id_ii_S2_P5E.4_K5.3_C5.2_[C-2A]_H5.3_A5.1_F5.1_T5.2_[T11C]_[A12G] (ssRNA) RNA: UUUGAUUAAUAUGAUAUCGUUCUUUCUAUACACUUAUUACGUUCUUUCUCGAUAUCAUAUUAAUCUUU", "sign qualifier": "=", "number": 674}
{"binder": "UCUCUUUGUAUCCCUAUCUCUU (ssRNA) [Ic_S1_P5E.1_K5.1_C5.1_H5.1_A5.1_[T6C]_[A7C]_F5.1_[T8C]_T5.1]", "sign qualifier": "=", "number": 13.3}
{"binder": "Ic_S2_P4E.1_K4.1_C4.1_H4.1_A4.1_[T5G]_[A6C]_[T7C]_F4.1_[T8C]_[A9G]_T4.1 (ssRNA) RNA: UUUGAUUAAUAUGAUAUCGUUCUUUCUUGUAGCCCGUUCUUUCUCGAUAUCAUAUUAAUCUUU", "sign qualifier": "=", "number": 1680}
{"binder": "Id_ii_S4_P3E.4_K3.3_C3.2_H3.3_A3.1_F3.1_T3.2_[T9C] (ssRNA) RNA: UUUGACAACUGAUCGUUCUUUCUCUACACUAUACAUUCUUUCUCGAUCAGUUGUCUUU", "sign qualifier": "=", "number": 597}
{"binder": "Ic_S4_P4E.1_K4.1_C4.1_H4.1_A4.1_[T5C]_[A6T]_[T7A]_F4.1_[T8C]_T4.1 (ssRNA) RNA: UUUGACAACUGAUCGUUCUUUCUUGUACUACAUUCUUUCUCGAUCAGUUGUCUUU", "sign qualifier": "=", "number": 279}
{"binder": "Ie_S4_P5E.1_K5.1_C5.1_H5.1_A5.1_F5.1_[+8CTCTC]_T5.1 (ssRNA) RNA: UUUGACAACUGAUCGUUCUUUCUUGUAUUAUCUCUCUAUUCUUUCUCGAUCAGUUGUCUUU", "sign qualifier": "=", "number": 27.5}
{"binder": "UCUCUUUGUAAAUUAUCUCUU (ssRNA) [Ia_S1_P4E.1_K4.1_C4.1_H4.1_A4.1_[T5A]_F4.1_T4.1]", "sign qualifier": "=", "number": 2.08}
{"binder": "Ic_S4_P4E.1_K4.1_C4.1_H4.1_A4.1_[T5C]_F4.1_[T8A]_T4.1 (ssRNA) RNA: UUUGACAACUGAUCGUUCUUUCUUGUACAUAAUUCUUUCUCGAUCAGUUGUCUUU", "sign qualifier": "=", "number": 2.32}
{"binder": "Ic_S2_P4E.1_K4.1_C4.1_H4.1_A4.1_[T7A]_F4.1_[A9G]_T4.1 (ssRNA) RNA: UUUGAUUAAUAUGAUAUCGUUCUUUCUUGUAUAAUGUUCUUUCUCGAUAUCAUAUUAAUCUUU", "sign qualifier": "=", "number": 5.97}
{"binder": "Ie_S2_P4E.1_K4.1_C4.1_H4.1_[+3CCCTT]_A4.1_F4.1_T4.1 (ssRNA) RNA: UUUGAUUAAUAUGAUAUCGUUCUUUCUUGUCCCUUAUAUUAUUCUUUCUCGAUAUCAUAUUAAUCUUU", "sign qualifier": "=", "number": 35.8}
{"binder": "UCUCUUCUACACUAUUAUAUCUCUU (ssRNA) [Id_ii_S1_P4E.4_K4.3_C4.2_H4.3_A4.1_F4.1_T4.2_[G10T]_[T11A]]", "sign qualifier": "=", "number": 965}
{"binder": "Id_ii_S2_P4E.3_K4.2_C4.2_[C-2G]_H4.2_A4.1_F4.1_T4.2_[G10C] (ssRNA) RNA: UUUGAUUAAUAUGAUAUCGUUCUUUCUGUUAUAUAUUACUUUCUUUCUCGAUAUCAUAUUAAUCUUU", "sign qualifier": "=", "number": 26.9}
{"binder": "UCUCUUUCUUAUAUUAUUAUUUCUCUU (ssRNA) [Id_iii_S1_P5E.6_K5.2_C5.3_H5.2_A5.1_F5.1_T5.2_[A12T]]", "sign qualifier": "=", "number": 372}
{"binder": "UCUCUUCUUGUCUCUAUAUAUAUCUCUU (ssRNA) [Ie_S1_P3E.2_K3.1_C3.2_H3.1_[+2TCTC]_A3.1_F3.1_T3.2]", "sign qualifier": "=", "number": 456}
{"binder": "UCUCUUGUUAUAUAUAUGUCUCUU (ssRNA) [Id_ii_S1_P3E.3_K3.2_C3.2_[C-2G]_H3.2_A3.1_F3.1_T3.2_[A10G]]", "sign qualifier": "=", "number": 46.3}
{"binder": "UCUCUUCUUGUUUUAUAUAUAUCUCUU (ssRNA) [Ie_S1_P3E.2_K3.1_C3.2_H3.1_[+2TTT]_A3.1_F3.1_T3.2]", "sign qualifier": "=", "number": 27.9}
{"binder": "ACAAACCGUAUUUUUAACAAAC (ssRNA) [Ib_S3_P5E.1_K5.1_C5.1_H5.1_[T1C]_A5.1_[A7T]_F5.1_T5.1]", "sign qualifier": ">", "number": 2300}
{"binder": "Id_ii_S4_P3E.2_K3.1_C3.2_[T-1C]_H3.1_A3.1_F3.1_T3.2_[A10G] (ssRNA) RNA: UUUGACAACUGAUCGUUCUUUCUCCUGUAUAUAUGUUCUUUCUCGAUCAGUUGUCUUU", "sign qualifier": "=", "number": 1.76}
{"binder": "UCUCUUUGUUCAUUAUCUCUU (ssRNA) [Ib_S1_P4E.1_K4.1_C4.1_H4.1_[A4T]_A4.1_[T5C]_F4.1_T4.1]", "sign qualifier": "=", "number": 21.1}
